B1: PBXIP1 (parent)
chain: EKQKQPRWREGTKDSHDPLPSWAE

variants of: B1; assay: protein stability index of a GFP-peptide fusion (GPS, HEK-293T) (PSI 1-6); higher = more stable; conditions: c terminus: a fixed tail appended;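 further: lentivirally expressed fusions sorted by FACS into six bins by GFP to DsRed ratio, PSI derived from sequencing read proportions per bin multiplied by bin number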
Rule: protein stability index under 2 gives not met, otherwise met.

> print(dat)
    mutation.key  category.label
 1           R7N             met
 2           E1L             met
 3          H16V         not met
 4           Q5H             met
 5           E1A             met
 6          E24Y             met
 7          H16P             met
 8          G11L             met
 9          E10D             met
10           W8A             met
11          D14P         not met
12          K13C         not met
13          G11Q         not met
14          D14T         not met
15           Q3H         not met
16          E10S         not met
17          W22P             met
18          A23I             met
19          W22Y             met
20           W8E             met
21           Q5Y             met
22          E10A         not met
23           R7T         not met
24          S21H             met
25          S21G             met
26           P6L             met
